test: viability loss with TRAIL in NB7+C8 cells, primary screen, TRAIL sensitizer project, cell-based, ATPlite luminescence (AID 624354); conditions: at 10 µM
Out of some 360,000 compounds screened, about 3,800 (1.1%) were called active.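 How the source made its calls: active means compounds causing at least 50% loss of cell viability in the single-dose screen, relative to plate controls; inactive means the rest.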 The entries come from a sample that favours actives as a whole.
Lab note: assign the record to one of y for active, n for inactive

These recorded examples may help you get a feel for the data.
- CC(C)C[C@@H](COc1ccccc1)N1CCN(CC(C)C)CCC1=O: n
- CS(=O)(=O)c1ccc2c(c1)SC1=NC(=O)/C(=C/c3ccco3)C(=N)N12: n
- O=c1[nH]c(CCl)nc2cc(-c3ccc(Cl)cc3)sc12: y

// param item: Cc1noc(C)c1NC(=O)N(C)C[C@@H]1Oc2cc(Br)ccc2S(=O)(=O)N([C@@H](C)CO)C[C@H]1C ; yields the recorded call
n

// param item: COc1cccc(C(=O)N/N=C(\C)c2cccc(NC(=O)c3ccc(F)cc3)c2)c1OC ; yields the recorded call
n

// param item: Cc1cc(/C=C2/C(=N)N3C(=NC2=O)SN=C3S(C)(=O)=O)c(C)n1-c1ccccc1 ; yields the recorded call
y

// param item: CC(C)Oc1ccc(/C=C(\NC(=O)/C=C/c2ccco2)C(=O)NCCc2nc3ccccc3[nH]2)cc1 ; yields the recorded call
n

// param item: CCN1CCC2(CCN(Cc3cn[nH]c3-c3ccc(OC)c(F)c3)C2)C1 (centres undefined) ; yields the recorded call
n

// param item: COc1cccc(NC(=O)CN(C)C(C)C(=O)Nc2ccc(C#N)cc2)c1 (centres undefined) ; yields the recorded call
n

----------
Reported inhibition (viability loss, TRAIL sensitization) values follow for various compounds
assay: viability loss with TRAIL in NB7+C8 cells, primary screen, TRAIL sensitizer project, cell-based, ATPlite luminescence (AID 624354); details: at 10 µM, stronger effect = higher value
Hit rate of the full screen: of about 360,000 compounds, about 3,800 (1.1%) were called active. The list comes from a sample in which actives are over-represented; it also holds close analogues and randomly drawn compounds.
// units = %; emit number, no label

Some compounds with recorded inhibition (viability loss, TRAIL sensitization):
• O=C(NCCc1ccccn1)c1cc(-c2ccc(Cl)cc2)nc2ccccc12 = 7.97
• CSc1cc(C)[nH]c(=O)n1 = -4.86
• OC(CNCc1ccc(Cl)c(Cl)c1)c1ccccc1 (stereo unspecified) = 1.28
• CC(C)CC(=O)N1CCN(Cc2ccccc2Br)CC1 = -13.2
• CCOc1ccc(C(C)=O)cc1CSc1nnc(-c2ccncc2)n1CCOC = -21.1
• CC(C)COc1ccc(C(=O)NNC(=O)CCC(=O)c2cccs2)cc1 = -0.727
• COc1ccc(C(=O)NC(C)Cn2nc(C)cc2C)cc1OC1CCN(C(C)=O)CC1 (stereo unspecified) = 8.29
• NC(c1csc(NC(=O)Nc2cccc(C(F)(F)F)c2)n1)C1CCCCC1 (stereo unspecified) = 88.8
• Cc1cnc(NC(=O)Cn2cnc3c2c(=O)n(C)c(=O)n3C)s1 = -2.16
• Cc1cnc(NC(=O)c2ccccn2)s1 = 56

# context switch: different compound, same inhibition (viability loss, TRAIL sensitization)
Please look up its inhibition (viability loss, TRAIL sensitization): COc1ccc2c(c1)CCCO[C@]21O[C@H](CCO)C[C@H](O)[C@H]1O
2.33

----------
test: viability loss with TRAIL in NB7+C8 cells, primary screen, TRAIL sensitizer project, cell-based, ATPlite luminescence (AID 624354); settings: at 10 µM
In all, about 360,000 compounds went through this assay and about 3,800 (1.1%) were called active.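 Rule for the calls: active = compounds causing at least 50% loss of cell viability in the single-dose screen, relative to plate controls; inactive = the rest.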 For the sample, actives were picked, then their nearest neighbours and some compounds at random.
Lab note: assign the record to one of true (active), false (inactive)

These recorded examples may help you get a feel for the data.
• O=C(N/N=C/c1cc([N+](=O)[O-])ccc1O)/C(=C\c1cccs1)NC(=O)c1ccccc1 = false
• O=C(N/N=C/c1ccccc1O)/C(=C/c1ccccc1)CCO = true
• Cc1ccc(OCCNC(=O)CN2C(=O)NC3(CCCC3)C2=O)cc1 = false
• ClC1(Cl)CC1CSc1ncn[nH]1 (stereo unspecified) = false
• COc1cc2c(cc1OC)C(C)N(S(=O)(=O)c1cnc(Cl)c(Cl)c1)CC2 (stereo unspecified) = true

Continue with the molecule presented below.
// param item: COc1ccc(/C=C/CN2CCN(Cc3ccc(C)cc3)C(CCO)C2)cc1 (stereo unspecified) ; yields the recorded call
false

----------
test: viability loss with TRAIL in NB7+C8 cells, primary screen, TRAIL sensitizer project, cell-based, ATPlite luminescence (AID 624354); settings: at 10 µM
Hit rate of the full screen: of about 360,000 compounds, about 3,800 (1.1%) were called active.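 Rule for the calls: active = compounds causing at least 50% loss of cell viability in the single-dose screen, relative to plate controls; inactive = the rest.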 What follows is part of a selection rich in actives, with near analogues and random picks from the rest.
Lab note: assign the record to one of active, inactive

These recorded examples may help you get a feel for the data.
* CCOC(=O)N1CCN(S(=O)(=O)c2ccc(C(=O)Nc3ccc(F)cc3F)cc2)CC1 | inactive
* CN(C)CCCN(C(=O)c1ccc(S(=O)(=O)N2CCCc3ccccc32)cc1)c1nc2ccc(F)cc2s1 | active
* Cc1ccnc(N2C(=O)c3ccc([N+](=O)[O-])cc3C2=O)c1 | inactive
* O=C1OCCN1C(=O)[C@H]1[C@H](c2ccc(Cl)cc2)C(c2cccc(Cl)c2)=NN1c1ccc(Br)cc1 | inactive

// param item: Cc1cccc(NC(=O)c2nc(S(=O)(=O)Cc3ccccc3)ncc2Cl)c1 ; yields the recorded call
active

// param item: CCCNC(=S)N1CCC(NC(=O)C23CC4CC(CC(C4)C2)C3)CC1 ; yields the recorded call
inactive

// param item: Cc1ccc(Cc2c(-c3ccccc3)nc3ccc(Cl)cn23)cc1 ; yields the recorded call
inactive

// param item: Cc1ccc(-c2cn3cc(C)ccc3n2)cc1 ; yields the recorded call
active

// param item: COc1ccc2occ(C(=O)c3ccc(N=C(C)N(C)C)cc3)c2c1 ; yields the recorded call
inactive

// param item: Cc1ccc(-c2nc3ccc(Br)cn3c2Cc2ccccc2C(F)(F)F)cc1 ; yields the recorded call
inactive

// param item: O=c1oc2ccccc2cc1-c1cn(-c2ccccc2)c(=S)[nH]1 ; yields the recorded call
active

----------
assay: viability loss with TRAIL in NB7+C8 cells, primary screen, TRAIL sensitizer project, cell-based, ATPlite luminescence (AID 624354); details: at 10 µM, stronger effect = higher value
In all, about 360,000 compounds went through this assay and about 3,800 (1.1%) were called active. The full list was thinned out, with actives kept by preference.
Outcome Measure: inhibition (viability loss, TRAIL sensitization) (%)
// units = %; emit number, no label

Some compounds with recorded inhibition (viability loss, TRAIL sensitization):
• O=C(NNS(=O)(=O)c1ccc([N+](=O)[O-])cc1)C1CCCCC1 = -2.99
• O=C(NNS(=O)(=O)c1ccccc1)c1cnn(-c2ccc(Cl)cc2)c1C(F)(F)F = 18.4
• COCCCNC(=O)c1cccc2c(-c3ccc(O)c(OC)c3)coc12 = 14.2
• Cc1ccc2cccc(OCCCOc3ccccc3CO)c2n1 = -4.7
• CCCCN1Cc2c(nc3cc(-c4ccccc4)[nH]n3c2=O)C1=O = -2.49

Please look up its inhibition (viability loss, TRAIL sensitization): C=CCc1c(C)nc2cc(-c3ccccc3)[nH]n2c1=O
30.8

Please look up its inhibition (viability loss, TRAIL sensitization): COc1ccc(C(=O)Nc2ccccc2C(=O)N/N=C/c2ccc(O)c(OC)c2)cc1
95.8

Please look up its inhibition (viability loss, TRAIL sensitization): Brc1ccc(C2CC(c3ccccc3)=Nc3ccccc3N2)cc1 (stereo unspecified)
24.3

Please look up its inhibition (viability loss, TRAIL sensitization): COc1cc(C=NC2CCCCC2)ccc1O
-2.08

Please look up its inhibition (viability loss, TRAIL sensitization): CCOc1ccc(C(CCc2ccccc2)NC(=O)c2ccc(OC)c(OC)c2)cc1OCC (stereo unspecified)
30.5

----------
assay: viability loss with TRAIL in NB7+C8 cells, primary screen, TRAIL sensitizer project, cell-based, ATPlite luminescence (AID 624354); details: at 10 µM
The whole screen tested about 360,000 compounds, of which about 3,800 (1.1%) were called active.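 Rule for the calls: active = compounds causing at least 50% loss of cell viability in the single-dose screen, relative to plate controls; inactive = the rest.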 Many of the other results were omitted from the sample, so actives are more common in it than they were.
Lab note: assign the record to one of active, inactive

These recorded examples may help you get a feel for the data.
• c1c2c(cc3sc(N4CCCCC4)nc13)OCCO2 = active
• O=C(O)c1c(NC(=O)N2CCCC2)sc2c1CCCC2 = inactive
• O=C(CN1CCCC1)Nc1sc2c(c1C(=O)Nc1ccccc1)CCCC2 = inactive

// param item: O=C(Nc1ccccc1)c1ccc2c(c1)OCCCO2 ; yields the recorded call
active

// param item: Cc1ccc2sc(NNC(=O)c3ccc4c(c3)OCCO4)nc2c1C ; yields the recorded call
inactive

// param item: C[C@@H]1CC2=C(C(=O)OC(C)(C)O2)[C@@H](C2CC2)O1 ; yields the recorded call
inactive

// param item: NC(=O)c1c(NC(=O)c2ccccc2)sc2c1CCCC2 ; yields the recorded call
active

// param item: COC(=O)C[C@@H]1C=C[C@@H](NS(=O)(=O)c2cccc(OC)c2)[C@@H](CO)O1 ; yields the recorded call
inactive

// param item: Cc1nnc(SC(C(=O)Nc2cc(Cl)cc(Cl)c2)c2ccccc2)[nH]c1=O (stereo not given) ; yields the recorded call
inactive

// param item: CC(C)C[C@H]1CNC(=S)N1C[C@H]1CCCN1C[C@H](Cc1ccc(O)cc1)N1C[C@H](Cc2ccc(O)cc2)N(CC2CCCCC2)C1=S ; yields the recorded call
inactive
